- EXPERIMENTAL TARGET: T1, cynomolgus BCMA-his protein (Acro biosystems, Cat #BCA-052H7) (cynomolgus monkey, UniProt A0A2K5UD97 1-53)
- T1 construct: Bought; also called cynomolgus monkey BCMA protein; not shown: his tag
- T1 sequence (A0A2K5UD97 entry or part of it): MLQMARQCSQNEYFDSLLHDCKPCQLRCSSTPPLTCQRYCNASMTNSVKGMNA
- TEST DETAILS: indirect ELISA on coated cynomolgus BCMA-his
Entries and their EC50 values follow.
Your answer is read as nM, so omit the unit and give the number.

[
  {
    "BINDER": "chimeric B1H2 antibody (antibody, human IgG1, kappa, V domains shown, Mouse variable domains fused to human IgG1 / kappa constant regions, made in 293F cells) VH: EVQLQQSGPELVKPGASVKMSCKASGYTLTNYVMHWMKQKPGQGLEWIGFIIPFNDGTKYNEHFKGKATLTSDKSSNTAYMVLSSLTSEDSAVYYCARYDFEGYFDVWGAGTTVTVSS VL: DIQMTQTTSSLSASLGDRVTISCSASQDITNFLNWYQQKPDGTVKLLIYSTSRLHSGVPSRFSGSGSGTDYSLTISNLEPEDIATYYCQQYSNLPWTFGGGTNLEIKR",
    "ASSAY ENDPOINT": "EC50",
    "REPORTED RESULT": 190
  }
]

q: Returns the measured EC50 for the input binder. Input: BCMA BM1, full-length antibody containing the BCMA-binding portion of GSK2857916 (antibody, human IgG1, kappa, V domains shown, Prepared in house from the full heavy and light chains; also called benchmark; positive control) VH: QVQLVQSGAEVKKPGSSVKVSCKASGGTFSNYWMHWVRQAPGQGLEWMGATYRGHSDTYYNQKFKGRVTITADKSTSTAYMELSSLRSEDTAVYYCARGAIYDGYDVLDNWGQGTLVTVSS VL: DIQMTQSPSSLSASVGDRVTITCSASQDISNYLNWYQQKPGKAPKLLIYYTSNLHSGVPSRFSGSGSGTDFTLTISSLQPEDFATYYCQQYRKLPWTFGQGTKLEIKR
a: 0.186

q: Next entry: mouse anti-BCMA monoclonal antibody B1H2 (antibody, V domains shown, Hybridoma-derived mouse mAb purified on Protein A; also called Mouse B1H2; mouse antibody B1H2) VH: EVQLQQSGPELVKPGASVKMSCKASGYTLTNYVMHWMKQKPGQGLEWIGFIIPFNDGTKYNEHFKGKATLTSDKSSNTAYMVLSSLTSEDSAVYYCARYDFEGYFDVWGAGTTVTVSS VL: DIQMTQTTSSLSASLGDRVTISCSASQDITNFLNWYQQKPDGTVKLLIYSTSRLHSGVPSRFSGSGSGTDYSLTISNLEPEDIATYYCQQYSNLPWTFGGGTNLEIK
a: 31.4
